# Tgt: T1, recombinant human regenerating islet-derived protein 1α (REG1A) (human, UniProt P05451 23-166, limits assumed)
# T1 construct: also called recombinant human REG1A; recombinant REG1A
# T1 sequence (looked up): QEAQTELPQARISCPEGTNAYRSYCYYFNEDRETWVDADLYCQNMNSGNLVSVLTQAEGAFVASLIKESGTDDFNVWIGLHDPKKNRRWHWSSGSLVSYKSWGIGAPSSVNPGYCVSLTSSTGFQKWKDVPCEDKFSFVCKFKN
# Assay text: sandwich ELISA; capture 11D11B11; REG1A 3.70 ng/mL
A collection of binders and their measured OD value
Numbers only here, please. The scale is OD.

Looking for the measured OD value of antibody 12F12A10 (antibody, V domains shown, Mouse monoclonal from hybridoma, stated mouse IgG1/Kappa; also called 12F12A10-biotin; Antibody 2) VH: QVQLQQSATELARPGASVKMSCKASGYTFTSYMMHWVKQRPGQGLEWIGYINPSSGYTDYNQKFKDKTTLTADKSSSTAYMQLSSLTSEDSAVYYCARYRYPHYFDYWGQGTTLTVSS VL: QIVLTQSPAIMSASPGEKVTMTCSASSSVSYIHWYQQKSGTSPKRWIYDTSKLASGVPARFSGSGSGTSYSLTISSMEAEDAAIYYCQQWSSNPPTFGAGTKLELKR , can you help?
2.81

// same read-out, input: antibody 11D11B11 (antibody, mouse IgG2a, kappa, V domains shown, Mouse monoclonal from hybridoma, stated mouse IgG1/Kappa; Used unlabelled as capture and biotin-labelled as detection antibody; also called 11D11B11-biotin) VH: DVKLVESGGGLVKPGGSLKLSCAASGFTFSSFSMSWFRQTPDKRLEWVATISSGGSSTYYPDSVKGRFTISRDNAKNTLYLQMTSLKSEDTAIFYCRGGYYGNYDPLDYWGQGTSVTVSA VL: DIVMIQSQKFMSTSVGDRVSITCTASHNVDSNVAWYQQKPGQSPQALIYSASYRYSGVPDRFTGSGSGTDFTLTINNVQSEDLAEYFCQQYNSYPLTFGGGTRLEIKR
0.066

Continue with antibody 4H8F1 (antibody, V domains shown, Mouse monoclonal from hybridoma, stated mouse IgG1/Kappa; also called 4H8F1-biotin; Antibody 1) VH: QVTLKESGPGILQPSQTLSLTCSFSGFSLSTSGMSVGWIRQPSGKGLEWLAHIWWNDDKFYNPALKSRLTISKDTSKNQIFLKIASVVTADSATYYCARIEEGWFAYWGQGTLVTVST VL: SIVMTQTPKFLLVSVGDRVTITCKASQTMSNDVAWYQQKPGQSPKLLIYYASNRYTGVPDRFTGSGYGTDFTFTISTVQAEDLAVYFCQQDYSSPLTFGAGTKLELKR
2.87

And the next one, antibody 21B11D2 (antibody, mouse IgG2b, kappa, V domains shown, Mouse monoclonal from hybridoma, stated mouse IgG1/Kappa; Used unlabelled as capture and biotin-labelled as detection antibody; also called 21B11D2-biotin) VH: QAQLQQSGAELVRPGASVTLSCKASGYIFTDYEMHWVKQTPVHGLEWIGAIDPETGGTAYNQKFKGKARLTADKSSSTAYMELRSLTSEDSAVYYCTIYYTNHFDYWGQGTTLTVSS VL: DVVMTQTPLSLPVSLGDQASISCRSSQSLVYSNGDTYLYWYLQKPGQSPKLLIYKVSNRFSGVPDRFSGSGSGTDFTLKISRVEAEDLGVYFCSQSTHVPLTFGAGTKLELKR ?
0.06
